Assay: Partition coefficient (logP)
Format: physicochemical
Settings: octanol/water
endpointName: logP
When you answer, write just the number.

// solved cases for logP follow
O=C(CCn1ccnc1[N+](=O)[O-])NCCCn1ccnc1[N+](=O)[O-]	-1.55
Cc1ncc([N+](=O)[O-])n1CCNC(=O)CCCCn1ccnc1[N+](=O)[O-]	-0.79
Cc1ncc([N+](=O)[O-])n1CCNC(=O)Cn1ccnc1[N+](=O)[O-]	-1.03
O=C(CCCn1ccnc1[N+](=O)[O-])NCCn1cncc1[N+](=O)[O-]	-1.55

Sample `Cc1ncc([N+](=O)[O-])n1CCNC(=O)CCCCCn1ccnc1[N+](=O)[O-]` — what was its logP?
-0.22

Sample `O=C(CCCn1ccnc1[N+](=O)[O-])NCCn1cnc([N+](=O)[O-])c1` — what was its logP?
-1.55

Sample `Cc1ncc([N+](=O)[O-])n1CCNC(=O)Cn1c([N+](=O)[O-])cnc1C` — what was its logP?
-0.76
